Assay system porcine pancreatic elastase (Sus scrofa); read-out recorded as IC50.
Where a SMILES comes first, the peptide text is derived from it. [ ]: non-standard residue; d: D form. Gly(octyl) = CCCCCCCC[C@H](N)C(=O)O; hTyr = N[C@@H](CCc1ccc(O)cc1)C(=O)O; AllylGly = C=CC[C@H](N)C(=O)O; β3hK = NCCCC[C@H](N)CC(=O)O; Dab = NCC[C@H](N)C(=O)O
Number in µM, nothing else.

{"compound": "CCCCCCCC[C@@H]1NC(=O)[C@@H]2CCCN2C(=O)[C@H]2CCCN2C(=O)[C@H](CO)NC(=O)[C@H](CCCCN)NC(=O)[C@H](CCC(N)=O)NC(=O)[C@@H]2CCCN2C(=O)[C@@H]2CCCN2C(=O)[C@H]([C@@H](C)CC)NC(=O)[C@H](CO)NC(=O)[C@H](C)NC(=O)[C@H]([C@@H](C)O)NC(=O)[C@H](CCc2ccc(O)cc2)NC1=O [Example 47] (cyclo([Gly(octyl)][hTyr]TASIPPQKS[dP]P))", "IC50 / µM": 0.5}
{"compound": "C=CC[C@@H]1NC(=O)[C@H]([C@@H](C)O)NC(=O)[C@H](CCC(=O)O)NC(=O)[C@H](CCC(=O)N[C@@H](Cc2ccccc2)C(=O)O)NC(=O)[C@@H]2CCCN2C(=O)[C@H]2CCCN2C(=O)[C@H](Cc2ccc(O)cc2)NC(=O)[C@H](CCCCN)NC(=O)[C@H](CCC(N)=O)NC(=O)[C@@H]2CCCN2C(=O)[C@@H]2CCCN2C(=O)[C@H]([C@@H](C)CC)NC(=O)[C@H](CO)NC1=O [Example 17] (cyclo(E(Phe)ET[AllylGly]SIPPQKY[dP]P))", "IC50 / µM": 31.2}
{"compound": "CCCCCCCC[C@@H]1NC(=O)[C@@H]2CCCN2C(=O)[C@H]2CCCN2C(=O)[C@H]([C@@H](C)O)NC(=O)C[C@H](CCCCN)NC(=O)[C@H](CCC(N)=O)NC(=O)[C@@H]2CCCN2C(=O)[C@@H]2CCCN2C(=O)[C@H]([C@@H](C)CC)NC(=O)[C@H](CO)NC(=O)[C@H](C)NC(=O)[C@H]([C@@H](C)O)NC(=O)[C@H](CCC(=O)O)NC1=O [Example 37] (cyclo([Gly(octyl)]ETASIPPQ[β3hK]T[dP]P))", "IC50 / µM": 8.8}
{"compound": "CC[C@H](C)[C@@H]1NC(=O)[C@H](CO)NC(=O)[C@H](C)NC(=O)[C@H]([C@@H](C)O)NC(=O)[C@H](CCc2ccc(O)cc2)NC(=O)[C@H](CCCNC(=N)N)NC(=O)[C@H](CCC(=O)O)NC(=O)[C@H]2CCCN2C(=O)[C@H]([C@@H](C)O)NC(=O)[C@H](CCCCN)NC(=O)[C@H](CCC(N)=O)NC(=O)[C@@H]2CCCN2C(=O)[C@@H]2CCCN2C1=O [Example 49] (cyclo(R[hTyr]TASIPPQKT[dP]E))", "IC50 / µM": 38.1}

Continue with the compound presented below.
Request: Give IC50 for this entry on porcine pancreatic elastase (Sus scrofa): CC[C@H](C)[C@@H]1NC(=O)[C@H](CO)NC(=O)[C@H](C)NC(=O)[C@H]([C@@H](C)O)NC(=O)[C@H](CCC(=O)O)NC(=O)[C@H](CCNC(=O)[C@@H](N)Cc2ccccc2)NC(=O)[C@@H]2CCCN2C(=O)[C@H]2CCCN2C(=O)[C@H](Cc2ccc(O)cc2)NC(=O)[C@H](CCCCN)NC(=O)[C@H](CCC(N)=O)NC(=O)[C@@H]2CCCN2C(=O)[C@@H]2CCCN2C1=O [Example 9] (cyclo([Dab](Phe)ETASIPPQKY[dP]P))
Sequence (P00772 27-266): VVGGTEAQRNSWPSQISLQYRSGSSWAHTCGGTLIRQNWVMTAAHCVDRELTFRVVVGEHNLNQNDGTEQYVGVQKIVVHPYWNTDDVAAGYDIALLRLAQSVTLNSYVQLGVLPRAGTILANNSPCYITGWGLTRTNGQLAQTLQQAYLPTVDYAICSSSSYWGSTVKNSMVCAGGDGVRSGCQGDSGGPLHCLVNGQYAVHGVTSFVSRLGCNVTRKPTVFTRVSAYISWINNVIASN
Result: 3.72

meta.source: patent US10273267B2
